System: SK-MEL-2
protocol notes: Cytotoxicity against human SK-MEL-2 cells
Type: functional
measurement parameters: read-out: Log LC50 (the source's name) (converted)
For each entry below, report its CC50 value.
One number for each entry, in µM.

Before answering, review these 2 worked examples.
> print(dat)
                    structure.smiles.string  assay.result
1  CC(=O)O[C@H]1C[C@H]2[C@@](C)(CC[C@H]3C(C)(C)CCC[C@@]32CO)[C@@H]2CC=C(C(C)=O)[C@H](C=O)[C@@]12C          8.13
2  CC(=O)C1=CC[C@H]2[C@]3(C)CC[C@H]4C(C)(C)CCC[C@]4(C(=O)O)[C@H]3CC(=O)[C@]2(C)[C@H]1C=O          37.2

API: the following record is the query input.
Look up CC50: CC(=O)O[C@@H]1C[C@H]2[C@]3(C)CC[C@H]4C(C)(C)CCC[C@]4(C)[C@H]3C[C@H](O)[C@]2(C)[C@@H](C=O)[C@@H]1C(C)=O
16.6
